- test_description: Solubility of the hole-transfer agent in triglyceride oleate
- Assay type: physicochemical
- condition_details: 25° C., g per 100 g of triglyceride oleate
measure_name: HTM Solubility (w %)

CCCCc1ccc(N(c2ccc(C)cc2)c2c(N(c3ccc(C)cc3)c3ccc(CCCC)cc3)c3ccccc3c3ccccc23)cc1 = 2.8

(a) Cc1ccccc1N(c1ccc(-c2ccc(N(c3ccccc3C)c3ccccc3/C=C/c3ccccc3)cc2)cc1)c1ccccc1/C=C/c1ccccc1
(b) CCc1cccc(C)c1N(c1ccccc1)c1ccc(/C=C/c2ccc(/C=C/c3ccc(N(c4ccccc4)c4c(C)cccc4CC)cc3)cc2)cc1
(c) CC(C)c1ccc(N(c2ccccc2)c2cccc(N(c3ccccc3)c3ccc(C(C)C)cc3)c2)cc1
Please list these molecules in decreasing order of HTM Solubility. Your task in answering is to list the labels in the requested order.
a, c, b
(a: 37.0 w %, c: 11.1 w %, b: 2.1 w %)
